# TESTED_SYSTEM: recombinant human BCAT1 (Homo sapiens)
# Sequence (P54687 whole entry): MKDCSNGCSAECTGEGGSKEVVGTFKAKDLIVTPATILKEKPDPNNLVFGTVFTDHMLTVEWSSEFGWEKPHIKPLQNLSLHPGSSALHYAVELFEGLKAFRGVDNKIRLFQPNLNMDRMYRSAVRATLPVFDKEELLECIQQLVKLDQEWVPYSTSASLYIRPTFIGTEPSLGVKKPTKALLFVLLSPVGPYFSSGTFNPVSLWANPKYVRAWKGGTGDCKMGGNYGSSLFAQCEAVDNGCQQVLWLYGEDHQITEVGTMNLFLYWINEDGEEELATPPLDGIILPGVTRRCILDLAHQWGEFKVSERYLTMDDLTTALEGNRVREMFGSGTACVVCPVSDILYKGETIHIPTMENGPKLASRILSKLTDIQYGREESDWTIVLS
# PROTOCOL_DETAILS: Inhibition of BCAT1 enzymatic activity (NADH consumption, coupled leucine dehydrogenase assay)
# STATED_CONDITIONS: inhibition of the enzymatic activity of BCAT1; range stated for compounds 2, 7 and 8 together
In this section we review reported IC50 values for a set of molecules.

MOLECULE	TESTED_SYSTEM	IC50
CC(=O)C(C)CC(CCC#N)C(=O)O (stereo not drawn)	recombinant human BCAT1 (Homo sapiens)	0.5 to 50 nM
CC(=O)C(C)CC(Cc1ccccc1)C(=O)O (stereo not drawn)	recombinant human BCAT1 (Homo sapiens)	0.5 to 50 nM
CC(=O)C(CCC(=O)O)c1ccccc1 (stereo not drawn)	recombinant human BCAT1 (Homo sapiens)	0.5 to 50 nM
